- System: Mycobacterium tuberculosis
- protocolDescription: Antimycobacterial activity against isoniazid-resistant Mycobacterium tuberculosis H37Rv ATCC 35822 assessed as inhibition of bacterial growth by agar plate dilution method
- Format: functional
reportedEndpoint: MIC (µg/mL)
Express it in µg/mL; write the number only.

Exercise: State its MIC on Mycobacterium tuberculosis: CC(C)=CCC/C(C)=C/CC/C(C)=C/COc1ccc(C(=O)OCCCOc2cccc(Nc3nc4ccccc4c(=O)o3)c2)cc1
Solution: 2.3

Exercise: State its MIC on Mycobacterium tuberculosis: CC(C)=CCC/C(C)=C/COc1ccc(C(=O)OCCCOc2cccc(Nc3nc4ccccc4c(=O)o3)c2)cc1
Solution: 4.4

Exercise: State its MIC on Mycobacterium tuberculosis: CO[C@H]1/C=C/O[C@@]2(C)Oc3c(C)c(O)c4c(O)c(c(/C=N/N5CCN(C)CC5)c(O)c4c3C2=O)NC(=O)/C(C)=C\C=C\[C@H](C)[C@H](O)[C@@H](C)[C@@H](O)[C@@H](C)[C@H](OC(C)=O)[C@@H]1C [RIFAMPIN]
Solution: 0.03
